Taken from patent EP0531370B1.

assay: in vitro; details: human
Metric: viability at 336 h

I'd like to know its viability at 336 h. The compound in question is O=C1NC(CCCl)Oc2ccccc21 (stereo not shown) > 50%

---

test: in vitro; settings: human, pbmc
Metric: MNTC (mM)
Note: unit mM is implicit; provide only the numeric part.

Cc1cn([C@H]2C[C@H](N=[N+]=[N-])[C@@H](CO)O2)c(=O)[nH]c1=O [AZT, 3'-azido-2',3'-dideoxythymidine, reference compound] : 1

Consider the additional compound presented here.
Look at this compound and give its reported MNTC. COc1cccc(C(N)=O)c1 [3-methoxybenzamide] 3

---

assay: in vitro; conditions: human, t-cell line
Listed next: entries and their corresponding MNTC.
Number only, in mM; omit the unit.

COc1cccc(C(N)=O)c1 [3-methoxybenzamide] : 3

Now take the following molecule into account.
Look at this molecule and give its reported MNTC. Cc1cn([C@H]2C[C@H](N=[N+]=[N-])[C@@H](CO)O2)c(=O)[nH]c1=O [AZT, 3'-azido-2',3'-dideoxythymidine, reference compound] 1
